experiment: qHTS assay for small molecule agonists of the antioxidant response element (ARE) signaling pathway (AID 743202); conditions: HepG2 ARE-bla reporter, beta-lactamase FRET, 16 h; series mostly up to 73.3 µM; on activation: on the % scale 0 is the no-effect control and ±100 the full control effect
Records with an inconclusive call do not appear. The source made the active and inactive calls. The call rests on the fitted dose curve; in most records, active means well fitted activation curve with a large enough effect in the signal ratio in the repeat runs (not every such curve was filed as active); inconclusive means weak or mixed curves, or effect the other way; inactive means no such curve, though single readings can be large or run the other way; the % refers to the signal ratio.
Choose the fitting class; nothing outside true (active), false (inactive) is accepted.

QUERY: Could you check what this test reported for Clc1cccc(C(c2ccc3nc[nH]c3c2)n2ccnc2)c1 (configuration not stated) ?
RESULT: false

QUERY: Could you check what this test reported for O=C1C=CCCC1 ?
RESULT: false

QUERY: Could you check what this test reported for O=C(OCCN1CCOCC1)c1cccnc1Nc1cccc(C(F)(F)F)c1 ?
RESULT: true

QUERY: Could you check what this test reported for O=c1[nH][nH]c2ccccc12 ?
RESULT: false

QUERY: Could you check what this test reported for C=CC(=O)NC(C)(C)C ?
RESULT: false

QUERY: Could you check what this test reported for COc1ccc(/C(C)=C/C(=O)O)c(OC)c1 ?
RESULT: false

QUERY: Could you check what this test reported for COc1ccc(/C=C/S(=O)(=O)NC(=O)c2ccc(C)cc2Cl)cc1 ?
RESULT: false

QUERY: Could you check what this test reported for C=C[Si]1(C)O[Si](C)(C=C)O[Si](C)(C=C)O[Si](C)(C=C)O1 (configuration not stated) ?
RESULT: false

QUERY: Could you check what this test reported for CC(C)(C)c1cc(C=O)cc(C(C)(C)C)c1O ?
RESULT: false

QUERY: Could you check what this test reported for CCN(CC)CC(=O)OCC(=O)[C@@]1(O)CC[C@H]2[C@@H]3CCC4=CC(=O)CC[C@]4(C)[C@H]3[C@@H](O)C[C@@]21C ?
RESULT: false

QUERY: Could you check what this test reported for CCOc1ccccc1O ?
RESULT: false

QUERY: Could you check what this test reported for CCc1ccc2c(c1)C(=O)c1ccccc1C2=O ?
RESULT: true

----------
test: qHTS assay to identify small molecule agonists of the estrogen receptor beta (ER-beta) signaling pathway - cell viability counter screen (AID 1259380); conditions: ER-beta-bla HEK293T viability, CellTiter-Glo luminescence, 16 h; series mostly up to 92.4 µM; further: nearly all actives have a fitted effect of over 30% in size
Records with an inconclusive call do not appear. Active and inactive are the calls of the source. The call rests on the fitted dose curve; in most records, active means well fitted cell-killing curve with a large enough effect in the repeat runs; inconclusive means weak or mixed curves, or effect the other way; inactive means flat fitted curve, though single readings scatter.
Choose the fitting class; nothing outside class 1 for active, class 0 for inactive is accepted.

QUERY: Could you check what this test reported for O=C(O)COCC(=O)O ?
RESULT: class 0

QUERY: Could you check what this test reported for O=C(c1ccc(Cl)cc1)c1ccc(Cl)cc1 ?
RESULT: class 0

QUERY: Could you check what this test reported for CC(=O)c1cccnc1 ?
RESULT: class 0

QUERY: Could you check what this test reported for C(/C=C/C=C/Nc1ccccc1)=Nc1ccccc1 ?
RESULT: class 0

QUERY: Could you check what this test reported for CCOc1ccc2c(c1)C(C)CC(C)(C)N2 (centres undefined) ?
RESULT: class 0

QUERY: Could you check what this test reported for CCc1ccc(C(=O)C(C)CN2CCCCC2)cc1 (centres undefined) ?
RESULT: class 0

QUERY: Could you check what this test reported for CCCc1ccc(OC)cc1 ?
RESULT: class 0

QUERY: Could you check what this test reported for Clc1ccccc1-c1nc(-c2ccncc2)no1 ?
RESULT: class 0

QUERY: Could you check what this test reported for NC(=O)c1ccccc1C(N)=O ?
RESULT: class 1

QUERY: Could you check what this test reported for Cc1ccc(S(=O)(=O)NC(=O)NC2CCCC2)cc1 ?
RESULT: class 0

QUERY: Could you check what this test reported for O=[N+]([O-])c1ccccc1CCO ?
RESULT: class 0

QUERY: Could you check what this test reported for CO[C@@H]1COCC[C@@H]1N[C@@H]1CC[C@@](C(=O)N2CCc3ncc(C(F)(F)F)cc3C2)(C(C)C)C1 ?
RESULT: class 0

QUERY: Could you check what this test reported for O=c1c2ccccc2oc2ccccc12 ?
RESULT: class 0

QUERY: Could you check what this test reported for CC(C)(Cc1c[nH]c2ccccc12)NCC(O)COc1ccccc1C#N (centres undefined) ?
RESULT: class 1

QUERY: Could you check what this test reported for O=c1[nH]nc(-c2ccc([N+](=O)[O-])o2)o1 ?
RESULT: class 0

QUERY: Could you check what this test reported for CC[C@H](NC(C)C)[C@H](O)c1ccc(O)c2[nH]c(=O)ccc12 ?
RESULT: class 0

QUERY: Could you check what this test reported for CCCCCO ?
RESULT: class 0

QUERY: Could you check what this test reported for CCCCCCCCCCCCCCCCC(=O)O ?
RESULT: class 0

QUERY: Could you check what this test reported for CC(C)C[C@H](NC(=O)[C@H](Cc1ccccc1)NC(=O)c1cnccn1)B(O)O ?
RESULT: class 1

QUERY: Could you check what this test reported for CCCCCCCCCCCC(=O)OCC ?
RESULT: class 0

QUERY: Could you check what this test reported for CCCCOC(=O)C(C)Oc1ccc(Oc2ccc(C(F)(F)F)cn2)cc1 (centres undefined) ?
RESULT: class 0

QUERY: Could you check what this test reported for O=C(Nc1ccc2c(c1)Cc1ccccc1-2)C(F)(F)F ?
RESULT: class 0

QUERY: Could you check what this test reported for CCCCCC1CCC(=O)O1 (centres undefined) ?
RESULT: class 0

QUERY: Could you check what this test reported for CC(C)(C)c1cc(C=O)cc(C(C)(C)C)c1O ?
RESULT: class 0

QUERY: Could you check what this test reported for C/C=C1\[C@H]2C=C(C)C[C@]1(N)c1ccc(=O)[nH]c1C2 ?
RESULT: class 0

QUERY: Could you check what this test reported for CCc1ccc2c(c1)C(=O)c1ccccc1C2=O ?
RESULT: class 0

QUERY: Could you check what this test reported for CCC(C)CCCC(C)(C)O (centres undefined) ?
RESULT: class 0

QUERY: Could you check what this test reported for Cc1c(Cl)cccc1[N+](=O)[O-] ?
RESULT: class 0

QUERY: Could you check what this test reported for OCCCO ?
RESULT: class 0

The reported measurements were obtained from PubChem BioAssay (Tox21).
